- TEST: melting temperature; fluorescence melt of hairpins on a sequencing array, two-state fit, raised by 9.35 °C to match UV melts
- COND: sodium 0.088 M

[
  {
    "RESIDUE_STRING": "GCCTTGCGAAAGCCACGC ((.(.((....)).).))",
    "Tm, °C": 46.8
  },
  {
    "RESIDUE_STRING": "GCTCGACGAAAGTCAAGC (((.(((....))).)))",
    "Tm, °C": 51.8
  },
  {
    "RESIDUE_STRING": "GATCGTCAGACGATC ((((((...))))))",
    "Tm, °C": 52.5
  },
  {
    "RESIDUE_STRING": "GCATCGCGAAAGCAATGC ((((.((....)).))))",
    "Tm, °C": 60.2
  },
  {
    "RESIDUE_STRING": "GTGTTGCCGAAAGGCCAC (((..(((....))))))",
    "Tm, °C": 57.8
  },
  {
    "RESIDUE_STRING": "GGCCATGGAAACATAGCC (((.(((....))).)))",
    "Tm, °C": 40.8
  },
  {
    "RESIDUE_STRING": "GCGGTTTCCCGC ((((....))))",
    "Tm, °C": 56.2
  },
  {
    "RESIDUE_STRING": "GCCCCCGAAAGGGTGGC ((((((....))).)))",
    "Tm, °C": 65.9
  },
  {
    "RESIDUE_STRING": "GATCATCATTATGATC ((((((....))))))",
    "Tm, °C": 46.8
  },
  {
    "RESIDUE_STRING": "GTGTTCGGAAACGAATGC (..((((....))))..)",
    "Tm, °C": 42.1
  },
  {
    "RESIDUE_STRING": "TAACTGAAAAGTTA (((((....)))))",
    "Tm, °C": 29.4
  },
  {
    "RESIDUE_STRING": "GGACCTGAAAAGGTCC ((((((....))))))",
    "Tm, °C": 68.2
  }
]

###

- TEST: melting temperature; fluorescence melt of hairpins on a sequencing array, two-state fit, raised by 9.35 °C to match UV melts
- COND: sodium 0.088 M
Record Criterion met whenever Tm is at 50 °C or higher; record Criterion not met when lower.

[
  {
    "RESIDUE_STRING": "GATCGTGCTGACGATC ((((((....))))))",
    "LABEL": "Criterion met"
  },
  {
    "RESIDUE_STRING": "GCAAACGAAAGTTCATGC ((((((....)))..)))",
    "LABEL": "Criterion not met"
  },
  {
    "RESIDUE_STRING": "GATCGGGACCCGATC ((((((...))))))",
    "LABEL": "Criterion met"
  },
  {
    "RESIDUE_STRING": "GTATTTGGAAACGAATAC (((((.(....).)))))",
    "LABEL": "Criterion not met"
  },
  {
    "RESIDUE_STRING": "GCTTAGCGAAAGCATAGC (((..((....))..)))",
    "LABEL": "Criterion not met"
  }
]

###

- TEST: melting temperature; fluorescence melt of hairpins on a sequencing array, two-state fit, raised by 9.35 °C to match UV melts
- COND: sodium 0.088 M
Tm values for the sequences below.

[
  {
    "RESIDUE_STRING": "GTATTACGAAAGTATTAC (((.(((....))).)))",
    "Tm / °C": 34.8
  },
  {
    "RESIDUE_STRING": "CGTGTCGGAAACGAAACG (((.(((....))).)))",
    "Tm / °C": 47.1
  },
  {
    "RESIDUE_STRING": "GCGGAGCGAAAGCAACGC (((..((....))..)))",
    "Tm / °C": 66.9
  },
  {
    "RESIDUE_STRING": "GCTAGGCGAAAGCTTCGC ((.(.((....)).).))",
    "Tm / °C": 36.2
  },
  {
    "RESIDUE_STRING": "GCGATTCGTCGC ((((....))))",
    "Tm / °C": 54.5
  },
  {
    "RESIDUE_STRING": "GAATGCGAAAGCAGGTTC ((((((....)))..)))",
    "Tm / °C": 30.4
  },
  {
    "RESIDUE_STRING": "GTCAGCGAAAGCTGGAC ((((((....))).)))",
    "Tm / °C": 53.1
  },
  {
    "RESIDUE_STRING": "GCAATCGAAAGATATTGC ((((((....)))..)))",
    "Tm / °C": 35.5
  },
  {
    "RESIDUE_STRING": "GAGTGTGGAAACGTACTC ((((..(....)..))))",
    "Tm / °C": 35.5
  },
  {
    "RESIDUE_STRING": "GTGCCTCGAAAGAGTCAC (((.(((....))).)))",
    "Tm / °C": 50.4
  },
  {
    "RESIDUE_STRING": "GAGAAAGGAAACTTTCCC (.(((((....))))).)",
    "Tm / °C": 25.1
  },
  {
    "RESIDUE_STRING": "GCACCAGCGAAAGCTTGC (((..(((....))))))",
    "Tm / °C": 38.1
  },
  {
    "RESIDUE_STRING": "GGCGCTCCGAAAGGAGCC (((..(((....))))))",
    "Tm / °C": 47.8
  },
  {
    "RESIDUE_STRING": "GCTCTTGGAAACAAGAAC (.(((((....))))).)",
    "Tm / °C": 31.4
  },
  {
    "RESIDUE_STRING": "GCACGCGGAAACGCATGC (((.(((....))).)))",
    "Tm / °C": 52.8
  },
  {
    "RESIDUE_STRING": "GACGTGGGAAACCACACC (..((((....))))..)",
    "Tm / °C": 25.5
  },
  {
    "RESIDUE_STRING": "GATCAACAGTTTGATC ((((((....))))))",
    "Tm / °C": 41.3
  },
  {
    "RESIDUE_STRING": "GGGATCCGAAAGGACCCC (((.(((....))).)))",
    "Tm / °C": 59.1
  },
  {
    "RESIDUE_STRING": "GCCTGGCGAAAGCCTAGC ((..(((....)))..))",
    "Tm / °C": 41
  },
  {
    "RESIDUE_STRING": "GATCAAACGGTTGATC ((((((....))))))",
    "Tm / °C": 44.2
  },
  {
    "RESIDUE_STRING": "GATGGCGCGAAAGCGATC (((..(((....))))))",
    "Tm / °C": 31.6
  },
  {
    "RESIDUE_STRING": "GATCTTAGTAAAGATC ((((((....))))))",
    "Tm / °C": 43.1
  },
  {
    "RESIDUE_STRING": "GATCACCAGAGTGATC ((((((....))))))",
    "Tm / °C": 57.2
  },
  {
    "RESIDUE_STRING": "GCCTGGCGAAAGCCCGGC (((.(((....))).)))",
    "Tm / °C": 59.4
  },
  {
    "RESIDUE_STRING": "GCATAGCGAAAGCGGTGC (((..((....))..)))",
    "Tm / °C": 63.6
  }
]
